Entry source: patent US20070099947A1

assay_name: Pharmacokinetic profile of opioid antagonists after IV, PO and SC administration
condition_label: male, Sprague Dawley, rat, in vivo, po, 10 mg/kg
measure_name: AUC(0-inf) (ng·h/mL)

1. O=C1CC[C@@]2(O)[C@H]3Cc4ccc(O)c5c4[C@@]2(CCN3CC2CC2)[C@H]1O5 [Naltrexone] :: 150

* * *

assay_name: Pharmacokinetic profile of opioid antagonists after IV, PO and SC administration
condition_label: male, Sprague Dawley, rat, in vivo, sc, 0.1 mg/kg
measure_name: bioavailability (%)

1. O=C1CC[C@@]2(O)[C@H]3Cc4ccc(O)c5c4[C@@]2(CCN3CC2CC2)[C@H]1O5 [Naltrexone] :: 31
